- Tested on: SNB-75 CNS
- Experiment summary: NCI-60 one-dose screen, 48 h
- Condition set: 10 µM unless noted
This is part of a sample that, as a whole, favours compounds with a hit. Of some 83,000 tested, about 20% had one in any assay. Active and inactive are the calls of the source. How the source made its calls: active means growth percent below 10; inactive means the rest.
Lab note: assign the record to one of YES (active), NO (inactive)

FC(F)(F)c1cccc(Nc2nc3ccccc3nc2Nc2cccc(C(F)(F)F)c2)c1 ... YES
O=C1c2ccccc2C(=O)c2c1ccc1[nH]c(CCl)nc21 ... NO
COc1ccc(Nc2nc(N/N=C/c3ccc(O)cc3)nc(Nc3ccc([N+](=O)[O-])cc3)n2)cc1 ... NO
COc1ccc(Cn2c(Br)c3c(c2-c2cc(OC)c(OC)c(OC)c2)CCc2sc(NC(=O)c4ccc(OC)cc4)nc2-3)cc1 ... NO
Cc1cc2c(c(C)c1Cl)C(=O)/C(=C/c1ccco1)O2 ... NO

Asked: Given COc1ccc(CCN2C(=O)CCSC2=S)cc1 , state the outcome it received in this test.
Given back: NO

Asked: Quick one: COc1cc(CNC(=O)c2ccsc2Nc2ccnc(C(F)(F)F)c2)ccc1O
Given back: NO

Asked: Quick one: c1ccc(CNc2nc(Nc3ccccc3)nc3ccccc23)cc1
Given back: YES

Asked: Quick one: O=C(Nc1ccc(F)cc1F)c1cc(Cl)ccc1O
Given back: YES

Asked: Quick one: COc1cc(OC)cc(N2C(=O)N(Cc3ccc(C(C)(C)C)cc3)c3ccccc3S2(=O)=O)c1
Given back: NO
